Values from patent US5942532A

measurementTarget: Kinase A and Spo0F (Bacillus subtilis)
Construct: made in house; host or cells: recombinant E. coli
procedureText: Autophosphorylation of Kinase A and Transphosphorylation of Spo0F Assay (HPK in vitro assay)
Format: biochemical
cond: Table 1, KinA/Spo0F phosphorylation, read-out: IC50
endpoint: IC50 (µM)
One number for each entry, in µM.

Solved cases (3 shown):
smilesStructure | unitSymbol | IC50
CC(C)c1ccc(-c2nc3ccc(C(=N)N)cc3[nH]2)cc1 | µM | 219
N=C(N)c1ccc2nc(-c3ccccc3O)[nH]c2c1 | µM | 465
COc1c(-c2nc3ccc(C(=N)N)cc3[nH]2)cc(C(C)(C)C)cc1C(C)(C)C | µM | 76

Here is another compound to look at.
Could you share which IC50 value was measured for CC(C)(C)c1ccc(O)c(-c2nc3ccc(C(=N)N)cc3[nH]2)c1 ?
64

----------
measurementTarget: Kinase A and Spo0F (Bacillus subtilis)
Construct: made in house; host or cells: recombinant E. coli
Sequence (P16497 1-606): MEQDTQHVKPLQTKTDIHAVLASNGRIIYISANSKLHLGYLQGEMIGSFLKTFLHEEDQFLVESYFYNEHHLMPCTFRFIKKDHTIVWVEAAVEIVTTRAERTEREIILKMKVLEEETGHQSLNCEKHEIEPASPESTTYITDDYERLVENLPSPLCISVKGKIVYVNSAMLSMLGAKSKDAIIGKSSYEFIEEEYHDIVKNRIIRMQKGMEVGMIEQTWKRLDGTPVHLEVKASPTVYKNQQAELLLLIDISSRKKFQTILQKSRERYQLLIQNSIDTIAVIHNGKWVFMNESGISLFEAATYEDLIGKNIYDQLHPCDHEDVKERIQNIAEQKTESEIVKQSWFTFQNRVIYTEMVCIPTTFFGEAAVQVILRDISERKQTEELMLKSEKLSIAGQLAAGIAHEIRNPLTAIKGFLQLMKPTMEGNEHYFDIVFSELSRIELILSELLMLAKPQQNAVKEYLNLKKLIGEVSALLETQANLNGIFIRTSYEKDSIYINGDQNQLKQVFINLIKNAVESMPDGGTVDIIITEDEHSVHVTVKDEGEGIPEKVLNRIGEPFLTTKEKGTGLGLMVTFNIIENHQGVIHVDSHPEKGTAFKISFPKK
procedureText: Autophosphorylation of Kinase A and Transphosphorylation of Spo0F Assay (HPK in vitro assay)
Type: biochemical
cond: Table 5, KinA/Spo0F phosphorylation, in µM
Protocol: Autophosphorylation of Kinase A and Transphosphorylation of Spo0F Assay To study the effect of the compounds of the present invention on the signal transduction process in bacteria, the inhibiting effect of the compounds on the sporulation operon proteins Kinase A and Spo0F was examined. Specifically, the inhibition of autophosphorylation of Kinase A and the transphosphorylation of Spo0F was determined in the following assays. […]
endpoint: IC50
One number for each entry.

molecule | IC50
N=C(N)c1ccc2nc(-c3ccc(Oc4ccc5[nH]cnc5c4)cc3)[nH]c2c1 [Example 80] | 94
N=C(N)Cn1c(-c2ccc(N(c3ccccc3)c3ccccc3)cc2)nc2ccc(C(=N)N)cc21 [Example 82] | 22
N=C(N)c1ccc2nc(-c3ccc(N4CCN(c5ccccc5)CC4)cc3)[nH]c2c1 [Example 81] | 26

Here is another molecule to look at.
Could you share which IC50 value was measured for N=C(N)c1ccc(Oc2ccc(-c3nc4ccccc4[nH]3)cc2)cc1 [Example 79] ?
241

----------
Assignment: determine reported IC50 for the given compounds.
measurementTarget: Kinase A and Spo0F (Bacillus subtilis)
Construct: made in house; host or cells: recombinant E. coli
Sequence (P16497 1-606): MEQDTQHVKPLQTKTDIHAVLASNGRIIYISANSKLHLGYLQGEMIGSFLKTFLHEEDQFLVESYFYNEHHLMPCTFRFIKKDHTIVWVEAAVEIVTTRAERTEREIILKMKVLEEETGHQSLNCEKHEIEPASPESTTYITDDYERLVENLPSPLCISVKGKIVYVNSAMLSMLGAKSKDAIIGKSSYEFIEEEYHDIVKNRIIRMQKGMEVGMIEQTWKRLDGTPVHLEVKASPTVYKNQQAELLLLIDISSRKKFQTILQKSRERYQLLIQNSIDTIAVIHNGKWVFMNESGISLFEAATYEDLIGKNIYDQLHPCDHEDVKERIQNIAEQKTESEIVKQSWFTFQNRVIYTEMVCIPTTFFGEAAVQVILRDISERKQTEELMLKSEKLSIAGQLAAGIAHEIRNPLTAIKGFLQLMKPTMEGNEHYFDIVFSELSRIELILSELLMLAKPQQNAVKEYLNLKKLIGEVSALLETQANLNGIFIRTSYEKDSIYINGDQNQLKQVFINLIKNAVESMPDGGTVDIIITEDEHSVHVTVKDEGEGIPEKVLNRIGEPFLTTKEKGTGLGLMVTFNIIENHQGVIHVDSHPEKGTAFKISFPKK
procedureText: Autophosphorylation of Kinase A and Transphosphorylation of Spo0F Assay (HPK in vitro assay)
Format: biochemical
cond: Table 2, KinA/Spo0F phosphorylation, in µM
One number for each entry.

smilesStructure | IC50
N=C(N)c1cc(N)c2[nH]c(-c3ccc(Oc4ccccc4)cc3)nc2c1 | 19
Cn1c(-c2ccc(Oc3ccccc3)cc2)nc2ccc(C(=N)N)cc21 | 44
N=C(N)c1ccc(Oc2ccc(-c3nc4ccc(C(=N)N)cc4[nH]3)cc2)cc1 | 131
N=C(N)c1ccc2nc(-c3ccc(Oc4ccc([N+](=O)[O-])c([N+](=O)[O-])c4)cc3)[nH]c2c1 | 31.6
N=C(N)c1ccc2nc(-c3ccc(Oc4ccc([N+](=O)[O-])cc4)cc3)[nH]c2c1 | 31.7

# batch size: 3; output IC50 per entry
1. COc1cc(OC)cc(Oc2ccc(-c3nc4ccc(C(=N)N)cc4[nH]3)cc2)c1
2. N=C(N)c1cc([N+](=O)[O-])c2[nH]c(-c3ccc(Oc4ccccc4)cc3)nc2c1
3. N=C(N)c1ccc2[nH]c(-c3ccc(Oc4ccc(N)c(N)c4)cc3)nc2c1

[59.2, 58, 31.5]

----------
measurementTarget: Kinase A and Spo0F (Bacillus subtilis)
Construct: made in house; host or cells: recombinant E. coli
Sequence (P16497 1-606): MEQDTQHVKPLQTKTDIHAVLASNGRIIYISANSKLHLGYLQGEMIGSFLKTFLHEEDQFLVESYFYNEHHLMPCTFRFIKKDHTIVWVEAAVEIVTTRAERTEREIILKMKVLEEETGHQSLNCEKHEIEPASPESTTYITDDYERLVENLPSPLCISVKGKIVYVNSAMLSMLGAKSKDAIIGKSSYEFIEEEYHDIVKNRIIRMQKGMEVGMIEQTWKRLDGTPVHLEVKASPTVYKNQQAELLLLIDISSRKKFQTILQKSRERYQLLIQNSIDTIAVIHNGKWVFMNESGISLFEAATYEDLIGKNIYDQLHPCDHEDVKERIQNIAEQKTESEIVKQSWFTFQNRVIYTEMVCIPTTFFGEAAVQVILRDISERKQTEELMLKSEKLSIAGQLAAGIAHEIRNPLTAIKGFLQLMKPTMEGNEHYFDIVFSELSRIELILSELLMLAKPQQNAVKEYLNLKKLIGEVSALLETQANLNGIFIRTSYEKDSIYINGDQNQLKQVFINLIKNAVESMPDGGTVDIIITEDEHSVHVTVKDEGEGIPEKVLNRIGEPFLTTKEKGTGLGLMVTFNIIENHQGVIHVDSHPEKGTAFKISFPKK
procedureText: Autophosphorylation of Kinase A and Transphosphorylation of Spo0F Assay (HPK in vitro assay)
Format: biochemical
cond: Table 6, KinA/Spo0F phosphorylation, in µM
Procedure: Autophosphorylation of Kinase A and Transphosphorylation of Spo0F Assay To study the effect of the compounds of the present invention on the signal transduction process in bacteria, the inhibiting effect of the compounds on the sporulation operon proteins Kinase A and Spo0F was examined. Specifically, the inhibition of autophosphorylation of Kinase A and the transphosphorylation of Spo0F was determined in the following assays. […]
The threshold is 30. Values of IC50 beneath it are tagged true; values meeting or exceeding it are tagged false.

smilesStructure | labelValue
CC(C)(C)c1cc(-c2nc3ccc(CN)cc3[nH]2)c(O)c(C(C)(C)C)c1 | true

In the record for CC(C)(C)c1cc(-c2nc3ccc(C4=NCCCCN4)cc3[nH]2)c(O)c(C(C)(C)C)c1 , is IC50 less than 30?
true

Then what about the compound CC1(C)CN=C(c2ccc3nc(-c4cc(C(C)(C)C)cc(C(C)(C)C)c4O)[nH]c3c2)N1 ?
true

Then what about the compound c1ccc(Oc2ccc(-c3nc4ccc(-c5nc6ccccc6[nH]5)cc4[nH]3)cc2)cc1 ?
false

----------
measurementTarget: Kinase A and Spo0F (Bacillus subtilis, UniProt P16497)
Construct: made in house; host or cells: recombinant E. coli
procedureText: Autophosphorylation of Kinase A and Transphosphorylation of Spo0F Assay (HPK in vitro assay)
Assay type: biochemical
cond: Table 3, KinA/Spo0F phosphorylation, read-out: IC50
Assignment: determine reported IC50 for the given molecules.
Give bare numbers, in µM.

# batch size: 2; output IC50 per entry
1. N=C(N)c1ccc2[nH]c(-c3cccc(Oc4ccc(Cl)c(Cl)c4)c3)nc2c1
2. Cc1ccc(Oc2cccc(-c3nc4cc(C(=N)N)ccc4[nH]3)c2)cc1

1: 32; 2: 33
